- System: OVCAR-4
- TEST_DESCRIPTION: NCI tumour cell line growth inhibition, 48 h
Activity calls are given as the source filed them. Rule as the data show it: active = GI50 up to about 1.1 µM and inactive = higher.
Outcomes: active, inactive

CC(C)(C)CNCCCNc1ccc(Cl)cc1    inactive
Cn1c2ccccc2c2c3c(c4c5ccccc5n(C)c4c21)C(=O)c1ccccc1C3=O    inactive
N/N=C1/CCCc2nonc21    inactive
COc1ccc2nc3cc([N+](=O)[O-])ccc3c(Nc3ccc(S(=O)(=O)Nc4ncccn4)cc3)c2c1    inactive
Cc1nc(N)sc1C(=O)Nc1nc[nH]n1    inactive
Cc1ccc(N2CCC3(CC2)OCCO3)cc1    inactive
O=[N+]([O-])c1ccc(/N=N/N2CCCC2)cc1    inactive
C=CC/N=C1/N=C(CC(=O)OCC)CS1    inactive
NCc1ccc(-c2ccc(-c3ccc(-c4ccc(CN)s4)s3)s2)s1    inactive
CCC1N2CCCCC2[C@@H]2c3[nH]c4ccccc4c3CCN12 (some centres undefined)    inactive
CC1(C)CC(=O)c2[nH]c3ccccc3c2CC(=O)NCCc2cn1cn2    inactive
C=C(CBr)CCCOCc1ccccc1    inactive
Fc1ccccc1C1SCC2=Nc3ccccc3CN21 (centres undefined)    inactive
N#CCCN(CCC#N)c1ccc(C(=N/c2ccc(Cl)cc2)/N=N/c2ccccc2)cc1    inactive
O=C1CC[C@@]2(O)[C@H]3Cc4ccc(-c5cccc(O)c5)c5c4[C@@]2(CCN3CC2CC2)[C@H]1O5    inactive
CCCN(CCCC(NC(C)=O)C(=O)NCc1ccccc1)C(=O)N(C)N=O (centres undefined)    inactive
COCOc1ccc(OC)cc1    inactive
C=C1C[C@@H]2CC[C@@]34CC5O[C@H]6C(O[C@H]7CC[C@H](CC(=O)O[C@@H]8[C@@H](C)[C@@H]9O[C@@H]%10C[C@]%11(C[C@@H]%12O[C@]%13(C[C@H](C)[C@@H]%14O[C@@H]%15CC(C(COC(C)=O)OC(C)=O)O[C@@H]%15C[C@@H]%14O%13)C[C@H](C)[C@@H]%12O%11)O[C@@H]%10C[C@@H]9O[C@H]8CC8O[C@@H](CC[C@@H]1O2)C[C@@H](C)C8(O)CO)O[C@@H]7[C@@H]6O3)[C@H]5O4 (some centres undefined)    active
COC(=O)C1CCC(=O)N1C(c1ccc(OC)cc1)c1ccc2c(c1)OCO2 (centres undefined)    inactive
O=c1c2cc([N+](=O)[O-])ccc2nc2n1CCCCC2    inactive
CC(=O)Oc1cc2c(cc1OC(C)=O)C1(C)CCC2(C)c2cc(OC(C)=O)c(OC(C)=O)cc21    inactive
COc1ccc(NC(=O)C(=O)Cc2ccc([N+](=O)[O-])c([N+](=O)[O-])c2CC(=O)C(=O)Nc2ccc(OC)cc2OC)c(OC)c1    inactive
COc1c(OC/C=C(\C)CCC=C(C)C)ccc2ccc(=O)oc12    inactive
Cc1cn(CCCCC2=NCCCN2)c(=O)[nH]c1=O    inactive
CC(=O)NC1C(OCc2ccccc2)OC(CO)C(O)C1OC(C)C(=O)NC(C(=O)N[C@@H](CCC(=O)NCCNCCNc1c2ccccc2nc2cccc([N+](=O)[O-])c12)C(N)=O)C(C)C (some centres undefined)    inactive
O=C(CC1(O)C(=O)Nc2c(Cl)cc(Cl)cc21)c1ccc(Br)cc1Br (centres undefined)    inactive
O=S(=O)(O)c1ccc2c(/N=N/c3ccccc3Cl)c(O)ccc2c1    inactive
N#Cc1nc(C#N)n(S(=O)(=O)c2ccccc2)c1NS(=O)(=O)c1ccccc1    inactive
CC(=O)OC1COC(N2C(=O)/C(=N\Nc3ccc([N+](=O)[O-])cc3)c3cc(Br)c([N+](=O)[O-])cc32)C(OC(C)=O)C1OC(C)=O (centres undefined)    inactive
CCOC(=O)CN1C(=O)C(=O)N(c2ccc(OC)c3ccccc23)C1=O    inactive
COc1cccc(-c2ccc3c4c2O[C@H]2C(=O)CC[C@@]5(O)[C@@H](C3)N(CC3CC3)CC[C@]425)c1    inactive
COC(=O)C1=CC2OC1(C)CCC2=O (centres undefined)    inactive
CN(C)CCNC(=O)c1ccc2ccc3cccnc3c2n1    inactive
N=C(N)SCCN1CCCCC1    inactive

Every entry's value here was drawn from ChEMBL document CHEMBL1201862.
